biological target: Human immunodeficiency virus type 1 integrase (Human immunodeficiency virus 1, UniProt Q7ZJM1); experiment: Inhibition of HIV1 integrase strand transfer activity
Sequence (Q7ZJM1 whole entry): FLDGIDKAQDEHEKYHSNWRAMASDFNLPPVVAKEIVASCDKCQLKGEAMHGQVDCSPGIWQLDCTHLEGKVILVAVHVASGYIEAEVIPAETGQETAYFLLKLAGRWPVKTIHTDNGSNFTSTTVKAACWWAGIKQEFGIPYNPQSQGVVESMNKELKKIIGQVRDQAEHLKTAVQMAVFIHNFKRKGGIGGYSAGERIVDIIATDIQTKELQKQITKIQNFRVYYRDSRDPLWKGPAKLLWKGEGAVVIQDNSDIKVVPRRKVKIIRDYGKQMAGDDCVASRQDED
Value Type: IC50 (µM)
Respond with the bare value in µM.

# IC50 of O=C(C1=C(O)C(=O)N(c2nc3ccccc3s2)C1c1ccc2c(c1)OCO2)c1ccccc1 (centres undefined) = 21

Notebook: COc1ccc(OC)c(C(=O)C2=C(O)C(=O)N(CCCCCC(=O)O)C2c2ccc(Cl)cc2)c1 (centres undefined) , IC50 read as 40

Query O=C(C1=C(O)C(=O)N(c2nc3ccccc3s2)C1c1cccnc1)c1ccc(Cl)cc1 (centres undefined) yields IC50 of 90

Form field IC50, entry COc1ccc(C(=O)C2=C(O)C(=O)N(CCc3ccccc3)C2c2ccc(Br)cc2)cc1OC (centres undefined) : 42

// sample CCOc1ccc(C(=O)C2=C(O)C(=O)N(c3nccs3)C2c2ccc(O)c(OC)c2)cc1 (centres undefined) , its IC50 was 30

Lab note: CCOc1ccc(C(=O)C2=C(O)C(=O)N(c3nccs3)C2c2ccc(OC)cc2)cc1 (centres undefined) gave IC50 of 90

Data point: Cc1ccc(C2C(C(=O)c3ccc(Cl)cc3)=C(O)C(=O)N2CC(=O)O)cc1 (centres undefined) ; IC50 = 69

IC50 recorded for this compound, CCOC(=O)c1sc(N2C(=O)C(O)=C(C(=O)c3ccccc3)C2c2ccc(F)cc2)nc1C (centres undefined) , is 21

Memo: Cc1ccc(C(=O)C2=C(O)C(=O)N(CCCn3ccnc3)C2c2ccc(Cl)cc2)cc1 (centres undefined) , reported IC50: 67

Provenance of the data: ChEMBL document CHEMBL1137564
